# Kd against Cyclin-dependent kinase 7 (Homo sapiens), merged from multiple literature sources
# Sequence (P50613 whole entry): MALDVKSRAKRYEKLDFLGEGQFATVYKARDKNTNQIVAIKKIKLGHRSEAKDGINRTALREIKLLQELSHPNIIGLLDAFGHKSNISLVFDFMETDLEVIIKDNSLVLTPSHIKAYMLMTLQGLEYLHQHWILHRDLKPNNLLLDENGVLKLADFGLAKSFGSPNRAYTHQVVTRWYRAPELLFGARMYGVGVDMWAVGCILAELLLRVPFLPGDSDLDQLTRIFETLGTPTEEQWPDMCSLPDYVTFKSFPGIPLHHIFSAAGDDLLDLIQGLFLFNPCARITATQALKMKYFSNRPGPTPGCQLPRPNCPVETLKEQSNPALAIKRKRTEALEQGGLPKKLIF

- COC(=O)c1c(Cc2ccc(C(=O)NCCO)cc2)c(=O)c2ccc(Cl)cc2n1-c1ccccc1: > 10000 nM
- Cc1ccc([N+](=O)[O-])cc1S(=O)(=O)N(C)/N=C/c1cnc2ccc(Br)cn12: 2.5 nM

Turning to the following molecule.
q: Hi! What's the reported Kd for C=CC(=O)Nc1ccc(C(=O)Nc2cc3cc(c2)Nc2nccc(n2)-c2cccc(c2)OCC/C=C/CN(C)C3)cc1 on Cyclin-dependent kinase 7 (Homo sapiens)?
a: < 1 nM
